Tested on: colon carcinoma Caco2
Assay: MTT cytotoxicity evaluation, Caco2
Assay type: cell-based
Conditions: Homo sapiens, Caco-2, read-out: IC50 (μM ± SD) Caco2
measure-name: IC50 (µM)

CC(=NNC(=S)Nc1ccc(Cl)cc1)c1nn(-c2ccc(S(N)(=O)=O)cc2)c(=N)s1 [Compound 9d]    98.7
C=CCn1c(-c2ccccc2)csc1=NN=C(C)c1nn(-c2ccc(S(N)(=O)=O)cc2)c(=N)s1 [Compound 12b]    25.5
CCOC(=O)c1sc(NN=C(C)c2nn(-c3ccc(S(N)(=O)=O)cc3)c(=N)s2)nc1C [Compound 7]    7.39
CC(=O)c1sc(NN=C(C)c2nn(-c3ccc(S(N)(=O)=O)cc3)c(=N)s2)nc1C [Compound 6]    33.8
